B1: H2-Kb / Ed40 (parent complex)
chain 1: GDSVTQTEGPVTVSESESLIINCTYSATSIAYPNLFWYVRYPGEGLQLLLKVITAGQKGSSRGFEATYNKETTSFHLQKASVQESDSAVYYCALGDGYTGNYKYVFGAGTRLKVIA
chain 2: DSGVVQSPRHIIKEKGGRSVLTCIPISGHSNVVWYQQTLGKELKFLIQHYEKVERDKGFLPSRFSVQQFDDYHSEMNMSALELEDSAMYFCASSGASAETLYFGSGTRLTVL
chain 3: not shown
chain 4: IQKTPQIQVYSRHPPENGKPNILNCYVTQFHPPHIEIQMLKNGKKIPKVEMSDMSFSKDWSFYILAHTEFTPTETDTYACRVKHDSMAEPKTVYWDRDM
chain 5: SIINFEKL

variants of: B1; assay: % of reporter cells activated (NFAT-GFP), raw; note: test concentration or dose not given here
Entries whose ratio to parent is below 0.5 take Met; entries at or above 0.5 take Not met.

Worked cases, answers included:
INSERT INTO measurements (mutant_id, label) VALUES
  ('chain 5 I2N', 'Not met'),
  ('chain 5 K7D', 'Met'),
  ('chain 5 I2S', 'Not met'),
  ('chain 5 I2Y', 'Not met');

Would you kindly look at the next entry?
Query: Hi there! Is ratio to parent for chain 5 K7A below 0.5, do you know?
Result: Met
